Quick reference: pIC50 of the listed items.
measured_on: rat recombinant thioredoxin reductase (Rattus norvegicus (Rat))
Sequence (O89049 whole entry): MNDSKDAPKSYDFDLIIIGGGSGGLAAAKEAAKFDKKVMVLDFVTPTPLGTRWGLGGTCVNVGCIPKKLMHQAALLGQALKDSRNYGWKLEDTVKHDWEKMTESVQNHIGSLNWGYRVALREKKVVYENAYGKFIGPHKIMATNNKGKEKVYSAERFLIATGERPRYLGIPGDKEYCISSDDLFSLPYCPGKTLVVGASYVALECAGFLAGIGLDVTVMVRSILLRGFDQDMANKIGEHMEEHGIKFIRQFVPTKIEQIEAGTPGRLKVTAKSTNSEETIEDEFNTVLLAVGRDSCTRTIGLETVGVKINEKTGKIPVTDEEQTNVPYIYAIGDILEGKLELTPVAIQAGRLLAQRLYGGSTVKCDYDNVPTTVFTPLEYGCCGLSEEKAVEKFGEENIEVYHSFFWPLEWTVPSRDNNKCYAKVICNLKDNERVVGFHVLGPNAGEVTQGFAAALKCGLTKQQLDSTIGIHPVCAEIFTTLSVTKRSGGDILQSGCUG
assay_method_text: Thioredoxin reductase activity, DTNB chromogenic assay (Thioredoxin Reductase Assay Kit)
Type: biochemical
condition: 15 min from reaction onset; read-out: IC50 of thioredoxin reductase activity inhibition
pIC50: −log10 of the molar value.

Worked set:
Record C=C(COC(=O)c1c(Cl)cccc1Cl)C(=O)NCc1ccccc1 . Reported pIC50: < 4.40

Record C=C(COC(=O)c1c(C(F)(F)F)cccc1C(F)(F)F)C(=O)NC(CC(C)C)C(=O)NCC(=O)OCC (racemic) . Reported pIC50: < 4.40

More entries:
Record C=C(COC(=O)c1c(C(F)(F)F)cccc1C(F)(F)F)C(=O)NCc1ccccc1 . Reported pIC50: < 4.40

Data provenance is patent US9018255B2.
